- studySystem: ZmDRIK1-K217-P492 (Zea mays)
- Construct: kinase domain, K217-P492
- testMethodNotes: biochemical
- protocolConditions: read-out: dTm B, sheet ZmDRIK1-K217-P492;; DSF, Boltzmann fit, 0.1% DMSO
recordedMetric: ΔTm at 10 µM (°C)

Nc1ncnc2c1c(-c1cccc(OCc3ccccc3)c1)cn2[C@H]1C[C@@H](CN2CCC2)C1 ... -1.08
CCN(CC)CCCCNc1ncc2cc(-c3cc(OC)cc(OC)c3)c(NC(=O)NC(C)(C)C)nc2n1 ... -0.962
COc1ccc(S(=O)(=O)N(C(C)=O)c2ccccc2/C=C/c2cc[n+]([O-])cc2)cc1 ... -0.694
Cc1ccccc1-n1c(Cn2ncc3c(N)ncnc32)nc2cccc(C)c2c1=O ... -1.04
C[C@@H]1CN(CC(=O)Nc2ccc3c(c2)Cc2cccc(-c4cc(=O)cc(N5CCOCC5)o4)c2S3)C[C@H](C)O1 ... -1.19

(a) Cc1cc(Nc2nc(N[C@@H](C)c3ncc(F)cn3)ncc2Cl)[nH]n1
(b) O=C(O)c1ccc(Nc2ncc3c(n2)-c2ccc(Cl)cc2C(c2c(F)cccc2F)=NC3)cc1
(c) CSc1cccc(Nc2ncc3cc(-c4c(Cl)cccc4Cl)c(=O)n(C)c3n2)c1
(d) S=C(NCc1ccc2c(c1)OCO2)N1CCN(c2ncnc3c2oc2ccccc23)CC1
# desc sort on ΔTm at 10 µM across 4 molecules Lab note: record answer as labels in requested order.
d, a, b, c
(d: 9.06 °C, a: -0.856 °C, b: -1.36 °C, c: -2.14 °C)

(A) CC(C)n1nc(-c2ccc3oc(N)nc3c2)c2c(N)ncnc21
(B) Cc1cnc(Nc2ccc(OCCN3CCCC3)cc2)nc1Nc1cccc(S(=O)(=O)NC(C)(C)C)c1 [TG101348 (SAR302503)]
(C) CCS(=O)(=O)c1cccc(-c2cc(C(=O)NC3CCN(C)CC3)c(C)c3[nH]c4ncc(C)cc4c23)c1
# desc sort on ΔTm at 10 µM across 3 molecules Lab note: record answer as labels in requested order.
C, A, B

(I) Cc1cc(C(=O)NOCCO)c(Nc2ccc(I)cc2F)n(C)c1=O
(II) C=CC(=O)Nc1cc(Nc2nccc(-c3cn(C)c4ccccc34)n2)c(OC)cc1N(C)CCN(C)C
Which numeric ΔTm at 10 µM is bigger, that of I or that of II ? Mark your selection by writing its label.
I

----------
- studySystem: ZmDRIK1 (DROUGHT RESPONSIVE INACTIVE KINASE 1), kinase domain (Zea mays, UniProt C0P4K9)
- Construct: gene ZEAMMB73_Zm00001d028770; ZmDRIK1-KD R187-S514 (kinase domain)
- testMethodNotes: biochemical
- protocolConditions: read-out: dTm B, sheet ZmDRIK1-R187-S514;; DSF, Boltzmann fit, 0.1% DMSO
recordedMetric: ΔTm at 10 µM (°C)

(A) O=c1cc(CN2CCOCC2)occ1OCCCCCSc1ccnc2cc(C(F)(F)F)ccc12 [EHT 1864]
(B) CCOc1ccn(-c2ccc(F)cc2)c(=O)c1C(=O)Nc1ccc(Oc2ccnc(N)c2Cl)c(F)c1 [BMS-777607]
Which numeric ΔTm at 10 µM is bigger, that of A or that of B ? Mark your selection by writing its label.
A

----------
- studySystem: ZmDRIK1-R187-P492 (Zea mays, UniProt C0P4K9)
- Construct: kinase domain, R187-P492
- Sequence (C0P4K9 1-514): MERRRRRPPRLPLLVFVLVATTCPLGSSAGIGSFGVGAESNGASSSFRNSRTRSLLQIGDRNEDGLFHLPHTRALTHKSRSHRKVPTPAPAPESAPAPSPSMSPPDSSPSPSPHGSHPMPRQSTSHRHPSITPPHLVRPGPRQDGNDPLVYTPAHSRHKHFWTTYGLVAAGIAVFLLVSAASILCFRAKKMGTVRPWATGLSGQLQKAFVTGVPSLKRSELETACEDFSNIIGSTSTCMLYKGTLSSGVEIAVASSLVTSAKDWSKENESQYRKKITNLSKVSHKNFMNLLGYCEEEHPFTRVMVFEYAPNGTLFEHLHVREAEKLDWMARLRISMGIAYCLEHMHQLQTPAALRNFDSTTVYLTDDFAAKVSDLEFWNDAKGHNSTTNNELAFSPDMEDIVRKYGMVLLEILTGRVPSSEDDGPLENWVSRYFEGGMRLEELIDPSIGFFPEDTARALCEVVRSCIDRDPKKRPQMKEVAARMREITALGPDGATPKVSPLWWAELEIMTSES
- testMethodNotes: biochemical
- protocolConditions: read-out: dTm B, DSF, Boltzmann fit, 0.1% DMSO
recordedMetric: ΔTm at 10 µM (°C)

(a) Cc1[nH]c2ccccc2c1C1=C(NCCc2ccc(F)cc2)C(=O)N(C)C1=O [IM-12]
(b) O=C(c1ccc(/C=C/c2n[nH]c3ccccc23)cc1)N1CCNCC1 [KW-2449]
When the recorded ΔTm at 10 µM values are compared, which is smaller: that of a or that of b ? Mark your selection by writing its label.
a

(a) N#CC1(c2ccc(NC(=O)c3cccnc3NCc3ccncc3)cc2)CCCC1 [Apatinib]
(b) O=C(NCc1ccccc1)c1csc(Nc2ccncn2)n1 [Thiazovivin]
(c) CC1=C(C(=O)Nc2cc3cn[nH]c3cc2F)C(c2ccc(C(F)(F)F)cc2)CC(=O)N1 (stereo not drawn) [GSK429286A]
Rank items: key ΔTm at 10 µM, increasing. Lab note: record answer as labels in requested order.
c, a, b

(1) C[C@@H]1CN(CC(=O)Nc2ccc3c(c2)Cc2cccc(-c4cc(=O)cc(N5CCOCC5)o4)c2S3)C[C@H](C)O1 [KU-60019]
(2) CCc1cccc(CC)c1NC(=O)N1Cc2[nH]nc(NC(=O)c3ccc(N4CCN(C)CC4)cc3)c2C1 [PHA-680632]
Which numeric ΔTm at 10 µM is bigger, that of 1 or that of 2 ? Mark your selection by writing its label.
2

----------
- studySystem: ZmDRIK1-K217-P492 (Zea mays, UniProt C0P4K9)
- Construct: kinase domain, K217-P492
- testMethodNotes: biochemical
- protocolConditions: read-out: dTm B, sheet ZmDRIK1-K217-P492;; DSF, Boltzmann fit, 0.1% DMSO
recordedMetric: ΔTm at 10 µM (°C)

Fc1cc(-c2cccc3ncc(-c4cnn(C5CCNCC5)c4)nc23)cc(F)c1CN1CCOCC1 [NVP-BSK805 2HCl] ... -0.999
Cc1cc2c(F)c(Oc3ncnn4cc(OC[C@@H](C)OC(=O)[C@H](C)N)c(C)c34)ccc2[nH]1 [Brivanib Alaninate (BMS-582664)] ... -1
Cc1cnc(Nc2ccc(N3CCN(C)CC3)cc2)nc1Nc1cccc(S(=O)(=O)NC(C)(C)C)c1 ... -0.984

----------
- studySystem: ZmDRIK1-K217-S514 (Zea mays, UniProt C0P4K9)
- Construct: kinase domain, K217-S514
- Sequence (C0P4K9 1-514): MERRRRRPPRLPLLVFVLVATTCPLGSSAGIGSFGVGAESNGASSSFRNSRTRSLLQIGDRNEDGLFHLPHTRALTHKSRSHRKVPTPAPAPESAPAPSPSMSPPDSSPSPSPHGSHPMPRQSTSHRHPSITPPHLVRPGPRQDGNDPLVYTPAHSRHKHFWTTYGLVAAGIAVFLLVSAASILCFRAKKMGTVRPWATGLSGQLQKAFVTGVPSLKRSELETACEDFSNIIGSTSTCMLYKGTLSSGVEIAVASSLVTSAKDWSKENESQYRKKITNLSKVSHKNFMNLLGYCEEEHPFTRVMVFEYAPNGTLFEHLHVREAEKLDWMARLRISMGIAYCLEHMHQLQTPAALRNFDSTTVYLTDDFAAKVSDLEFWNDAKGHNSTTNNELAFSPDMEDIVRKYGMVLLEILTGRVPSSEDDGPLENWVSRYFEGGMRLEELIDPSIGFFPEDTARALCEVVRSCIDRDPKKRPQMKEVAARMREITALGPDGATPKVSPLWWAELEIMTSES
- testMethodNotes: biochemical
- protocolConditions: read-out: dTm B, sheet ZmDRIK1-K217-S514;; DSF, Boltzmann fit, 0.1% DMSO
recordedMetric: ΔTm at 10 µM (°C)

Example entries begin here.
O=C(O)c1ccc(Nc2ncc3c(n2)-c2ccc(Cl)cc2C(c2c(F)cccc2F)=NC3)cc1 ... -0.583
COc1cc2nccc(Oc3ccc(NC(=O)Nc4ccc(F)cc4F)c(F)c3)c2cc1OC ... -0.589
CC(C)CCN1c2nc(Nc3cc(F)c(O)c(F)c3)ncc2N(C)C(=O)C1C (centres unmarked) ... -0.612

(P) C=CCc1ccc(O)c(-c2ccc(O)c(CC=C)c2)c1
(Q) CCN1CCN(Cc2ccc(-c3cc4c(N[C@H](C)c5ccccc5)ncnc4[nH]3)cc2)CC1
When the recorded ΔTm at 10 µM values are compared, which is smaller: that of P or that of Q ? Mark your selection by writing its label.
P
